target: GABA-A receptor; anion channel; test: Inhibitory concentration of central benzodiazepine GABA-A receptor of rat cerebral cortex; assay type: tissue-based
Can you tell me pIC50 for the items I'm about to list?
Give the figure by itself; no unit, no explanation.

Entry O=C(Cc1c(-c2ccc(Cl)cc2)nc2c(Cl)cc(Cl)cn12)N1CCc2ccccc2C1 — recorded pIC50 = 5

Entry O=C(Cc1c(-c2ccc(Cl)cc2)nc2c(Cl)cc(Cl)cn12)Nc1ccccc1 — recorded pIC50 = 5

Entry CCOC(=O)C1CCCN(C(=O)Cc2c(-c3ccc(Cl)cc3)nc3c(Cl)cc(Cl)cn23)C1 (stereo not given) — recorded pIC50 = 5

Entry CCCN(CCC)C(=O)C(C)c1c(-c2ccc(Cl)cc2)nc2c(Cl)cc(Cl)cn12 (stereo not given) — recorded pIC50 = 5

Entry CCCCN(CCCC)C(=O)Cc1c(-c2ccc(Cl)cc2)nc2ccc(Cl)cn12 — recorded pIC50 = 7.051

Entry O=C(Cc1c(-c2ccc(Cl)cc2)nc2c(Cl)cc(Cl)cn12)N1CCCCC1 — recorded pIC50 = 5

Entry O=C(Cc1c(-c2ccccc2)nc2c(Cl)cc(Cl)cn12)N1CCCC1 — recorded pIC50 = 5

Entry CC(C(=O)N(C)C1CCCCC1)c1c(-c2ccc(Cl)cc2)nc2c(Cl)cc(Cl)cn12 (stereo not given) — recorded pIC50 = 5

Entry CCCCCCN(CCCCCC)C(=O)Cc1c(-c2ccc(Cl)cc2)nc2ccc(Cl)cn12 — recorded pIC50 = 5.481

Entry C=CCN(CC=C)C(=O)Cc1c(-c2ccc(Cl)cc2)nc2c(Cl)cc(Cl)cn12 — recorded pIC50 = 5

Entry O=C(Cc1c(-c2ccc(Cl)cc2)nc2c(Cl)cc(Cl)cn12)N1CCCC1 — recorded pIC50 = 5

Entry CCCCNC(=O)Cc1c(-c2ccc(Cl)cc2)nc2c(Cl)cc(Cl)cn12 — recorded pIC50 = 5

Entry CCOC(=O)C1CCCN(C(=O)Cc2c(-c3ccc(Cl)cc3)nc3ccc(Cl)cn23)C1 (stereo not given) — recorded pIC50 = 6.725

Entry CCCCN(C(=O)Cc1c(-c2ccc(Cl)cc2)nc2ccc(Cl)cn12)c1ccccc1 — recorded pIC50 = 6.133

Entry O=C(Cc1c(-c2ccccc2)nc2c(Cl)cc(Cl)cn12)NC1CCCCC1 — recorded pIC50 = 5

Entry CN(CCc1ccccn1)C(=O)Cc1c(-c2ccccc2)nc2c(Cl)cc(Cl)cn12 — recorded pIC50 = 5

Entry O=C(Cc1c(-c2ccccc2)nc2c(Cl)cc(Cl)cn12)Nc1ccncc1 — recorded pIC50 = 5

Entry CCCCN(C)C(=O)Cc1c(-c2ccccc2)nc2c(Cl)cc(Cl)cn12 — recorded pIC50 = 5

Entry CC(C)(C)N(Cc1ccccc1)C(=O)Cc1c(-c2ccc(Cl)cc2)nc2c(Cl)cc(Cl)cn12 — recorded pIC50 = 5

Entry O=C(Cc1c(-c2ccccc2)nc2c(Cl)cc(Cl)cn12)N1CCCCC1 — recorded pIC50 = 5

* * *

biological target: Benzodiazepine receptors; peripheral & central (Rattus norvegicus) (UniProt O09028+P15431+P18506+P18508+P19969+P20236+P23574+P23576+P28471+P28473+P30191+P62813+P63079+P63138+Q91ZM7+Q9ES14+P16257); experiment: Ratio of inhibition for peripheral benzodiazepine receptor of rat ovary and central benzodiazepine GABA-A receptor; assay type: tissue-based; set-up: scale not given here; conditions: Female gonad
Cut-off 3 on Selectivity index, inclusive. At or above means 1 (yes); below means 0 (no).

Request: Please check the record O=C(Cc1c(-c2ccccc2)nc2c(Cl)cc(Cl)cn12)NC1CCCCC1 and state if its Selectivity index is at or above 3.
Result: 0 (no)

Request: Please check the record CCCCN(C(=O)Cc1c(-c2ccccc2)nc2c(Cl)cc(Cl)cn12)c1ccccc1 and state if its Selectivity index is at or above 3.
Result: 1 (yes)

Request: Please check the record O=C(Cc1c(-c2ccc(Cl)cc2)nc2c(Cl)cc(Cl)cn12)Nc1ccccc1 and state if its Selectivity index is at or above 3.
Result: 0 (no)

Request: Please check the record CCCCN(CCCC)C(=O)Cc1c(-c2ccc(Cl)cc2)nc2ccccn12 and state if its Selectivity index is at or above 3.
Result: 0 (no)

Request: Please check the record CCOC(=O)C1CCCN(C(=O)Cc2c(-c3ccc(Cl)cc3)nc3ccc(Cl)cn23)C1 (stereo not given) and state if its Selectivity index is at or above 3.
Result: 0 (no)
